Data credit: paper PMC9217908

Please go through the items and note down their inhibition at 200 µM.
Target: CAT1 (cationic amino acid transporter 1, CAT1/SLC7A1) (Homo sapiens)
Construct: full-length human transporter stably transfected in HEK cells (HEK-CAT1); net uptake against HEK-VC vector control cells
Assay: cell-based
Parameters: species or system HEK-CAT1 (HEK293 stably transfected); Inhibition of net CAT1-mediated [3H]-L-arginine (100 uM) uptake, 5 min, scintillation counting, vector control subtracted
Settings: HEK293; L-arginine 100 uM as substrate; read-out: % Inhibition of L-arginine uptake at 200 µM
Answers are plain numbers, in %.

Here is how some molecules turned out for inhibition at 200 µM.
| MOLECULE | SCALE UNIT | inhibition at 200 µM |
| --- | --- | --- |
| O=C(O[C@H]1C[C@H]2CC[C@@H](C1)[N+]21CCCC1)C(O)(c1ccccc1)c1ccccc1 [Trospium Chloride] | % | -23.8 |
| Oc1ncnc2[nH]ncc12 [Allopurinol] | % | 14.1 |
| CNCC[C@H](Oc1cccc2ccccc12)c1cccs1 [Duloxetine] | % | 12.6 |
| NS(=O)(=O)c1cc2c(cc1Cl)NCNS2(=O)=O [Hydrochlorothiazide] | % | 20.7 |

Please turn your attention to the following entry.
Which inhibition at 200 µM value is on record for CC(C)OC(=O)C(C)(C)Oc1ccc(C(=O)c2ccc(Cl)cc2)cc1 [Fenofibrate] ?
13.1

---

Target: CAT1 (cationic amino acid transporter 1, CAT1/SLC7A1) (Homo sapiens)
Construct: full-length human transporter stably transfected in HEK cells (HEK-CAT1); net uptake against HEK-VC vector control cells
Test: cell-based
Parameters: species or system HEK-CAT1 (HEK293 stably transfected); Inhibition of net CAT1-mediated [3H]-L-homoarginine (1 uM) uptake, 2.5 min, scintillation counting, vector control subtracted
Settings: HEK293; L-homoarginine 1 uM as substrate; read-out: % Inhibition of L-homoarginine uptake at 200 µM
Would you please tag the item Condition met when its inhibition at 200 µM is -10% or above, and Condition not met when it is below?

Use the examples below as a reference point.
| COMPOUND | CAT |
| --- | --- |
| C=C[C@H]1CN2CC[C@H]1C[C@@H]2[C@@H](O)c1ccnc2ccc(OC)cc12 [Quinidine] | Condition met |
| C[C@H](CS)C(=O)N1CCC[C@H]1C(=O)O [Captopril] | Condition not met |

Field: next compound
Could you verify whether the entry CCCCNc1cc(C(=O)O)cc(S(N)(=O)=O)c1Oc1ccccc1 [Bumetanide] shows inhibition at 200 µM of no less than -10%?
Condition met

---

Please go through the items and note down their inhibition at 20 µM.
Biological target: CAT1 (cationic amino acid transporter 1, CAT1/SLC7A1) (Homo sapiens, UniProt P30825)
Construct: full-length human transporter stably transfected in HEK cells (HEK-CAT1); net uptake against HEK-VC vector control cells
Sequence (P30825 whole entry): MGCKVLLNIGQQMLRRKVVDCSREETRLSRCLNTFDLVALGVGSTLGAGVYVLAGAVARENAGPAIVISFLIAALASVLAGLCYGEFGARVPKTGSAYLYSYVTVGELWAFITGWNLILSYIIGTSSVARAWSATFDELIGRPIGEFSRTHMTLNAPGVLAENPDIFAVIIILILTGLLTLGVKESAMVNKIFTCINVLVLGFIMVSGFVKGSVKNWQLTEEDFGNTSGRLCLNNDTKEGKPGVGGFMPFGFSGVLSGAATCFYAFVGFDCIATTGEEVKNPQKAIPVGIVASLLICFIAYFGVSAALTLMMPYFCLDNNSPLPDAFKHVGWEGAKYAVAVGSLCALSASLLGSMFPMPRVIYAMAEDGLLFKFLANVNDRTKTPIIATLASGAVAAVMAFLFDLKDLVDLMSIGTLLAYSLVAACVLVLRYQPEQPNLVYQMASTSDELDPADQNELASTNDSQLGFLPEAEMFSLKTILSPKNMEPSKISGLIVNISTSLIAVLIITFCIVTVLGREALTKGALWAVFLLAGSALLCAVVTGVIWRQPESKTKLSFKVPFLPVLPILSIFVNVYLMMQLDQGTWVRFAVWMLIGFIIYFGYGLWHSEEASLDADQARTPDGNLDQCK
Test: cell-based
Parameters: species or system HEK-CAT1 (HEK293 stably transfected); Inhibition of net CAT1-mediated [3H]-L-arginine (100 uM) uptake, 5 min, scintillation counting, vector control subtracted
Settings: HEK293; L-arginine 100 uM as substrate; read-out: % Inhibition of L-arginine uptake at 20 µM
Give bare numbers, in %.

Here is how some compounds turned out for inhibition at 20 µM.
| COMPOUND | inhibition at 20 µM / % |
| --- | --- |
| COC(=O)[C@H](c1ccccc1Cl)N1CCc2sccc2C1 [Clopidogrel] | 6.4 |
| CC12CC3CC(C)(C1)CC(N)(C3)C2 [Memantine] | -3.2 |
| COc1ccc(CCN(C)CCCC(C#N)(c2ccc(OC)c(OC)c2)C(C)C)cc1OC (stereo not shown) [verapamil] | 29.3 |
| CCCc1nc(C(C)(C)O)c(C(=O)O)n1Cc1ccc(-c2ccccc2-c2nnn[nH]2)cc1 [Olmesartan] | 2.8 |
| Nc1ccc(S(=O)(=O)c2ccc(N)cc2)cc1 [Dapsone] | -8.6 |
| C[C@@H]1CCC[C@H](C)N1NC(=O)c1ccc(Cl)c(S(N)(=O)=O)c1 [Clopamide] | 4.5 |
| CC(C)NCC(O)COc1cccc2ccccc12 (stereo not shown) [Propranolol] | -0.9 |
| NC(=O)N1c2ccccc2C=Cc2ccccc21 [Carbamazepine] | 17.8 |
| CCCN(CCC)S(=O)(=O)c1ccc(C(=O)O)cc1 [Probenecid] | -2.6 |

Please turn your attention to the following entry.
Test system CAT1 (cationic amino acid transporter 1, CAT1/SLC7A1) (Homo sapiens, UniProt P30825); read-out inhibition at 20 µM; what value for O=C(O)CCCc1ccc(N(CCCl)CCCl)cc1 [Chlorambucil] ?
-23.3

---

Target: CAT1 (cationic amino acid transporter 1, CAT1/SLC7A1) (Homo sapiens, UniProt P30825)
Construct: full-length human transporter stably transfected in HEK cells (HEK-CAT1); net uptake against HEK-VC vector control cells
Test: cell-based
Design: species or system HEK-CAT1 (HEK293 stably transfected); Inhibition of net CAT1-mediated [3H]-L-arginine (100 uM) uptake, 5 min, scintillation counting, vector control subtracted
Details: HEK293; L-arginine 100 uM as substrate; read-out: % Inhibition of L-arginine uptake at 20 µM
REPORTED PROPERTY: inhibition at 20 µM (%)
One number for each entry, in %.

Here is how some molecules turned out for inhibition at 20 µM.
| MOLECULE | SCALE UNIT | inhibition at 20 µM |
| --- | --- | --- |
| CN(C)C(=N)NC(=N)N | % | -20.7 |
| N[C@@H](Cc1ccc(O)c(O)c1)C(=O)O | % | 8.1 |
| COC(=O)[C@H]1[C@H]2C[C@@H]3c4[nH]c5cc(OC)ccc5c4CCN3C[C@H]2C[C@@H](OC(=O)c2cc(OC)c(OC)c(OC)c2)[C@@H]1OC | % | 4.7 |

For each listed entry, give its inhibition at 20 µM.
1. CCOC(=O)C1=C(C)NC(C)=C(C(=O)OC)C1c1cccc(Cl)c1Cl (stereo not drawn)
2. CCC(C)(C)C(=O)O[C@H]1C[C@@H](C)C=C2C=C[C@H](C)[C@H](CC[C@@H]3C[C@@H](O)CC(=O)O3)[C@H]21
3. C[C@H]1O[C@@H](O[C@H]2[C@@H](O)C[C@H](O[C@H]3[C@@H](O)C[C@H](O[C@H]4CC[C@@]5(C)[C@H](CC[C@@H]6[C@@H]5C[C@@H](O)[C@]5(C)[C@@H](C7=CC(=O)OC7)CC[C@]65O)C4)O[C@@H]3C)O[C@@H]2C)C[C@H](O)[C@@H]1O
4. Cc1nccn1CC1CCc2c(c3ccccc3n2C)C1=O (stereo not drawn)
5. CC[C@H]1OC(=O)[C@H](C)[C@@H](O[C@H]2C[C@@](C)(OC)[C@@H](O)[C@H](C)O2)[C@H](C)[C@@H](O[C@@H]2O[C@H](C)C[C@H](N(C)C)[C@H]2O)[C@](C)(OC)C[C@@H](C)C(=O)[C@H](C)[C@@H](O)[C@]1(C)O
6. CCOC(=O)[C@H](CCc1ccccc1)N[C@@H](C)C(=O)N1CCC[C@H]1C(=O)O
7. CCN(CC)CCCC(C)Nc1ccnc2cc(Cl)ccc12 (stereo not drawn)

[-2.2, -4.1, -4.3, 8.8, -16.8, 9.9, -6.1]

For each listed entry, give its inhibition at 20 µM.
1. Nc1nc(N)c2nc(-c3ccccc3)c(N)nc2n1
2. CC(C)OC(=O)C(C)(C)Oc1ccc(C(=O)c2ccc(Cl)cc2)cc1 [Fenofibrate]
3. CC(CN1c2ccccc2Sc2ccccc21)N(C)C (stereo not drawn)
4. c1ccc([C@H]2CN3CCSC3=N2)cc1
5. CC(C)Cc1ccc(C(C)C(=O)O)cc1 (stereo not drawn)

1: 5.1; 2: 16.3; 3: -1.3; 4: -18.4; 5: -5.1

---

Target: CAT1 (cationic amino acid transporter 1, CAT1/SLC7A1) (Homo sapiens)
Construct: full-length human transporter stably transfected in HEK cells (HEK-CAT1); net uptake against HEK-VC vector control cells
Assay: cell-based
Set-up: species or system HEK-CAT1 (HEK293 stably transfected); Inhibition of net CAT1-mediated [3H]-L-homoarginine (1 uM) uptake, 2.5 min, scintillation counting, vector control subtracted
Conditions: HEK293; L-homoarginine 1 uM as substrate; read-out: % Inhibition of L-homoarginine uptake at 20 µM
REPORTED PROPERTY: inhibition at 20 µM (%)
Numbers only, in %.

Here is how some molecules turned out for inhibition at 20 µM.
| MOLECULE | inhibition at 20 µM / % |
| --- | --- |
| C[C@@H](O)[C@H]1C(=O)N2C(C(=O)O)=C(S[C@@H]3CN[C@H](C(=O)N(C)C)C3)[C@H](C)[C@H]12 [Meropenem] | -19.3 |
| COc1ccccc1OCCNCC(O)COc1cccc2[nH]c3ccccc3c12 (stereo not drawn) [Carvedilol] | -11.2 |
| CC[C@H]1OC(=O)[C@H](C)[C@@H](O[C@H]2C[C@@](C)(OC)[C@@H](O)[C@H](C)O2)[C@H](C)[C@@H](O[C@@H]2O[C@H](C)C[C@H](N(C)C)[C@H]2O)[C@](C)(O)C[C@@H](C)CN(C)[C@H](C)[C@@H](O)[C@]1(C)O [Azithromycin] | 20.8 |

For each listed entry, give its inhibition at 20 µM.
1. O=C(O)c1cc(-c2ccc(F)cc2F)ccc1O [Diflunisal]
2. CCOC(=O)[C@H](CCc1ccccc1)N[C@@H](C)C(=O)N1[C@H](C(=O)O)C[C@@H]2CCC[C@@H]21 [Ramipril]
3. CC[C@H]1OC(=O)[C@H](C)[C@@H](O[C@H]2C[C@@](C)(OC)[C@@H](O)[C@H](C)O2)[C@H](C)[C@@H](O[C@@H]2O[C@H](C)C[C@H](N(C)C)[C@H]2O)[C@](C)(OC)C[C@@H](C)C(=O)[C@H](C)[C@@H](O)[C@]1(C)O [Clarithromycin]

27.9
-0.7
-2.4
